system: A431 skin; experiment: In vitro cytotoxicity MTT assay, A431 skin; format: cell-based; settings: 72 h drug exposure, n = 3
experimentalEndpoint: GI50 (µM)
Write the number in µM without appending the unit.

Quick note, GI50 for `CC(=O)Oc1ccccc1C(=O)[O-].Cc1c(C)c2cccnc2c2ncccc12.N[C@H]1CCCC[C@@H]1N.O=[N+]([O-])[O-].O=[N+]([O-])[O-].[OH-].[Pt+4]` landed at 0.031

Kindly note the recorded GI50 for COc1ccc2c(c1)c(CC(=O)[O][Pt-2]13([OH])([NH2+]C4CCCCC4[NH2+]1)[n+]1cccc4ccc5ccc[n+]3c5c41)c(C)n2C(=O)c1ccc(Cl)cc1.O=[N+]([O-])[O-].O=[N+]([O-])[O-] (stereo not drawn) , which is 0.4

For `Cc1c(C)c2cccnc2c2ncccc12.N[C@H]1CCCC[C@@H]1N.O=[N+]([O-])[O-].O=[N+]([O-])[O-].[OH-].[OH-].[Pt+4]` the molecule record lists GI50 as 0.12
